# test-method-notes: Hydrate screen on the HCl salt: solubility in ethanol/water
# Format: physicochemical
# condition-context: ethanol/water mixture, aqueous with cosolvent or surfactant or cyclodextrin, thermodynamic from solid, Ethanol/water aw 0.4; solubility column beside XRPD after 5 days

| smiles-data | solubility at 5 days |
| --- | --- |
| CC[C@H](Nc1ncnc2[nH]cnc12)c1nc2cccc(F)c2c(=O)n1-c1ccccc1 | 57 mg/mL |

###

# test-method-notes: Hydrate screen on the HCl salt: solubility in ethanol/water
# Format: physicochemical
# condition-context: ethanol/water mixture, aqueous with cosolvent or surfactant or cyclodextrin, thermodynamic from solid, Ethanol/water aw 0.5; solubility column beside XRPD after 5 days
reported-endpoint: solubility at 5 days (mg/mL)

| smiles-data | data-value |
| --- | --- |
| CC[C@H](Nc1ncnc2[nH]cnc12)c1nc2cccc(F)c2c(=O)n1-c1ccccc1 | 72 |

###

# test-method-notes: Hydrate screen on the HCl salt: solubility in ethanol/water
# Format: physicochemical
# condition-context: ethanol/water mixture, aqueous with cosolvent or surfactant or cyclodextrin, thermodynamic from solid, Ethanol/water aw 0.3; solubility column beside XRPD after 5 days
reported-endpoint: solubility at 5 days

| smiles-data | reported-endpoint | data-value |
| --- | --- | --- |
| CC[C@H](Nc1ncnc2[nH]cnc12)c1nc2cccc(F)c2c(=O)n1-c1ccccc1 | solubility at 5 days | 47 mg/mL |

###

# test-method-notes: Hydrate screen on the HCl salt: solubility in ethanol/water
# Format: physicochemical
# condition-context: ethanol/water mixture, aqueous with cosolvent or surfactant or cyclodextrin, thermodynamic from solid, Ethanol/water aw 0.3; solubility
# Source text: Polymorphic Form I of a hydrochloride salt of (S)-2-(1-(9H-purin-6-ylamino)propyl)-5-fluoro-3-phenylquinazolin-4(3H)-one, i.e., Compound of Formula (I), prepared according to the protocols described in Example 1 above was mixed with ethanol and water. XRPDs were taken on Days 5 and 21.
reported-endpoint: solubility at 21 days (mg/mL)

| smiles-data | reported-endpoint | data-value |
| --- | --- | --- |
| CC[C@H](Nc1ncnc2[nH]cnc12)c1nc2cccc(F)c2c(=O)n1-c1ccccc1 | solubility at 21 days | 33 |
